System: IGROV1 ovarian
PROCEDURE_DETAILS: NCI-60 one-dose screen, 48 h (100 = growth as untreated, 0 = no growth, -100 = all killed)
CONDITION_DETAILS: 10 µM
The panel holds about 83,000 compounds, 20% with a hit somewhere; the sample as a whole holds those more often. The source made the active and inactive calls. How the source made its calls: active means growth percent below 10; inactive means the rest.
REPORTED_PROPERTY: growth

Answered cases to consult:
COMPOUND	growth
CCOC(=O)C1=C(N)N(c2ccccc2)C2=C(C(=O)CC(C)(C)C2)C1c1ccccc1OC (stereo not given)	96.9% (inactive)
Cc1ccc(C(=O)CSc2nnc(-c3c[nH]c4ccccc34)n2-c2ccccc2)cc1	24.2% (inactive)
Cc1ccc(-c2nc(Nc3ccccc3C(=O)O)c3ccccc3n2)cc1	31.1% (inactive)
Clc1ccc(/C=N/Nc2ncnc3sc4c(c23)CCN(Cc2ccccc2)C4)cc1	34.4% (inactive)
COc1ccc(/C(CSc2nnc(-c3c[nH]c4ccccc34)n2-c2ccccc2)=N/O)cc1	43.1% (inactive)

Provide growth values for the following items, in order.
1. COc1ccc(OC)c(-c2cc(-c3c[nH]c4ccccc34)nc(N)c2C#N)c1
2. COc1cc(/C=C/C(=O)c2ccc(NC(=O)CSc3nnc(-c4c[nH]c5ccccc45)n3-c3ccccc3)cc2)cc(OC)c1OC
3. O=C(CNc1nc(-c2ccccc2)cs1)Nc1cccc([N+](=O)[O-])c1
4. Cc1ccc(C(C)C)cc1NC(=O)c1ccccc1N(C)C
5. O=C1NC(=NC2CCCCCC2)N/C1=C\c1ccc2ncoc2c1
6. CC(=O)Nc1ccc(-c2cn(-c3cccc(C(=O)Nc4cc(C(F)(F)F)cc(C(F)(F)F)c4)c3)nn2)cn1

**A:**
1: 15.9% (inactive); 2: 48.8% (inactive); 3: -47.4% (active); 4: 88.6% (inactive); 5: 34.6% (inactive); 6: -38.4% (active)

Provide growth values for the following items, in order.
1. O=C(CNc1nc(-c2ccccc2)cs1)Nc1ccc(Br)cc1
2. O=c1cc(-c2ccccc2)oc2cc(OCCCNCc3ccccc3)cc(O)c12
3. O=C(NO)c1ccc(-c2nc3ccc4[nH]ncc4c3c3c2CCCC3)cc1
4. O=C(N/N=C/c1ccc(-c2cccc([N+](=O)[O-])c2)o1)c1[nH]c2ccc(Br)cc2c1-c1ccccc1
5. CN1CCN(c2ccc(Nc3nc(NCCCNC(=O)c4ccccc4)c4sccc4n3)cc2)CC1

**A:**
-75.4% (active)
9.54% (active)
-18.9% (active)
33.7% (inactive)
94.9% (inactive)

Provide growth values for the following items, in order.
1. O=c1[nH]c2ccccc2cc1CSc1ccc(Nc2nccc(-c3ccc4ccccc4c3)n2)cc1
2. COc1ccc(-c2c(N)c(=O)n(C)c3ccccc23)cc1

**A:**
73.9% (inactive)
46.5% (inactive)

Provide growth values for the following items, in order.
1. CN1C(=O)N(C)C2SC(N/N=C/c3cccs3)=NC21 (stereo not given)
2. O=C(c1ccc(O)cc1)C1[C@H](c2ccccc2Br)[C@@H](c2ccccc2)NC12C(=O)Nc1ccc(Cl)cc12 (stereo not given in full)

**A:**
1. 36.7% (inactive)
2. 7.88% (active)

* * *

Tested on: UACC-257 melanoma
PROCEDURE_DETAILS: NCI-60 one-dose screen, 48 h
CONDITION_DETAILS: 10 µM
Procedure: Cells are grown in 96 well plates and exposed to the test compound for 48 hours. Compounds are tested at a single concentration, which is 10^-5 M for most compounds. The reported endpoint is percent growth (GI% or GIPRCNT), where numbers from 0 - 100% represent growth inhibition, and numbers from -100% - 0 represent cell death. For example, a value of 40 represents 60% growth inhibition. A value of 0 means no net growth occurred over the course of the experiment. […]
About 83,000 compounds went through this panel and 20% of them were active in at least one assay; those are over-represented in the sample as a whole. The source made the active and inactive calls. Rule for the calls: active = growth percent below 10; inactive = the rest.
Pick from 1 for active, -1 for inactive when you respond.

Use the examples below as a reference point.
COMPOUND	QUALITATIVE_LABEL
COc1ccc2cc([C@H](C)C(=O)NCc3ccccc3)ccc2c1	-1
COc1cccc2nc(Nc3ccc(F)c(NC(=O)c4ccc(CN5CCN(C)CC5)c(C(F)(F)F)c4)c3)ccc12	1
O=C(NC(=S)N1CCN(c2ncnc3c2cnn3-c2ccccc2)CC1)c1ccc(Cl)cc1	-1
COc1ccc(/C=C/C(=O)c2ccc(NC(=O)CN3C(=O)NC(C)(c4ccccc4)C3=O)cc2)cc1 (stereo not given)	-1
CN1CCN(c2ccc(Nc3nc(N4CCN(S(=O)(=O)c5ccc(F)cc5)CC4)c4sccc4n3)cc2)CC1	1
CCOP(=O)(OCC)O[C@H]1CC[C@]2(C)[C@H]3CC[C@@H]4[C@@H]([C@](C)(O)CCC=C(C)C)CC[C@@]4(C)[C@]3(C)CC[C@H]2C1(C)C	1
CO[C@H]1CSS[C@@H]1Cn1nc(-c2ccc(Oc3ccccc3)cc2)c2c(N)ncnc21	1
O=C1Nc2cc(-c3ccc(NC(=O)c4cccc([N+](=O)[O-])c4)cc3)ccc2/C1=C/c1ccc[nH]1	-1

**Q:** Given CC(C)C(=O)Nc1ccc(C(=O)NC(=S)Nc2ccc(C(=O)O)cc2)cc1 , state the outcome it received in this test.
**A:** -1

**Q:** Given CC1(C)[C@@H](NCO)CC[C@]2(C)[C@H]3C(=O)C=C4[C@@H]5C[C@](C)(CO)CC[C@]5(C)CC[C@@]4(C)[C@]3(C)CC[C@@H]12 , state the outcome it received in this test.
**A:** -1

**Q:** Given O=C(c1ccc(Cl)cc1)C1[C@H](c2ccc(Br)cc2)[C@@H](c2ccccc2)NC12C(=O)Nc1ccc(Br)cc12 (stereo not given in full) , state the outcome it received in this test.
**A:** 1

**Q:** Given Nc1nnc(-c2c[nH]c3ccc(F)cc23)c(-c2c[nH]c3ncccc23)n1 , state the outcome it received in this test.
**A:** -1

**Q:** Given CN(CCO)c1oc(-c2ccccc2)nc1[P+](c1ccccc1)(c1ccccc1)c1ccccc1 , state the outcome it received in this test.
**A:** 1

**Q:** Given S=c1nc(-c2ccccc2)cc(-c2cc3ccccc3nc2Cl)[nH]1 , state the outcome it received in this test.
**A:** -1
